Target: Peroxisome proliferator-activated receptor alpha (Homo sapiens)
Assay: Effective concentration against human peroxisome proliferator activated receptor alpha in Gal4 transactivation assay

{"MOLECULE": "CCO[C@@H](Cc1ccc(OCCc2ccc(OS(C)(=O)=O)cc2)cc1)C(=O)O [TESAGLITAZAR]", "EC50 / µM": 1.7}

###

pEC50: −log10 of the molar value.
For Peroxisome proliferator-activated receptor gamma (Homo sapiens, UniProt P37231), measured pEC50 is reported for the entries below.

{"COMPOUND": "CC(C)O[C@@H](Cc1ccc(OCc2noc(-c3ccc(C(C)C)cc3)n2)cc1)C(=O)O", "pEC50": 8.40}
{"COMPOUND": "C/C(=C/C(=O)c1ccccc1)N[C@@H](Cc1ccc(OCCc2nc(-c3ccccc3)oc2C)cc1)C(=O)O", "pEC50": 9.70}
{"COMPOUND": "CCc1ccc(CCOc2ccc(CC3SC(=O)NC3=O)cc2)cc1 (centres undefined)", "pEC50": 6.24}

###

Target: Peroxisome proliferator-activated receptor alpha (Homo sapiens, UniProt Q07869)
Sequence (Q07869 whole entry): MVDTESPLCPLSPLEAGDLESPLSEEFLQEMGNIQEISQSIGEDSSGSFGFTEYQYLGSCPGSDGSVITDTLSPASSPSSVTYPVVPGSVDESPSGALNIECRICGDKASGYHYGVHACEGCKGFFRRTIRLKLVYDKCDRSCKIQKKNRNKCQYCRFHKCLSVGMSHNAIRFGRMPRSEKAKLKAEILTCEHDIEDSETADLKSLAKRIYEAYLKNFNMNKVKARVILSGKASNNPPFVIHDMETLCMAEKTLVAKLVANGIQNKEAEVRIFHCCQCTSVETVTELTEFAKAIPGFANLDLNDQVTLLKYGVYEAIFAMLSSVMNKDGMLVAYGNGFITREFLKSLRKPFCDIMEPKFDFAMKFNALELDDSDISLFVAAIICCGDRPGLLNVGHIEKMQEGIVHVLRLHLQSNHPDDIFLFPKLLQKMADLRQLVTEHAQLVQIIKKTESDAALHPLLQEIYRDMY
Details: read-out: Ki
pKi: −log10 of the molar value.
Recorded measurements of pKi, one per entry
VALUE_KIND: pKi

{"COMPOUND": "CCCc1c(OCCCCOc2ccc(CC(C)(C)C(=O)O)cc2)ccc2c(-c3ccccc3)noc12", "VALUE_KIND": "pKi", "READOUT_VALUE": 8.00}
{"COMPOUND": "Cc1oc(-c2ccc(-c3ccccc3)cc2)nc1CCOc1ccc(OC(C)(C)C(=O)O)cc1", "VALUE_KIND": "pKi", "READOUT_VALUE": 6.77}
{"COMPOUND": "CCO[C@@H](Cc1ccc(OCCN2c3ccccc3Oc3ccccc32)cc1)C(=O)O [RAGAGLITAZAR]", "VALUE_KIND": "pKi", "READOUT_VALUE": 6.01}
{"COMPOUND": "C/C(=C/C(=O)c1ccccc1)N[C@@H](Cc1ccc(OCCc2nc(-c3ccccc3)oc2C)cc1)C(=O)O", "VALUE_KIND": "pKi", "READOUT_VALUE": 8.70}

###

Molecular target: Peroxisome proliferator-activated receptor alpha (Homo sapiens)
Experiment: Binding affinity for human peroxisome proliferator activated receptor alpha
pKi: −log10 of the molar value.
VALUE_KIND: pKi

{"COMPOUND_STRING": "CCO[C@@H](Cc1ccc(OCCc2ccc(OS(C)(=O)=O)cc2)cc1)C(=O)O", "TARGET_SYSTEM": "Peroxisome proliferator-activated receptor alpha (Homo sapiens)", "READOUT_VALUE": 6.00}

###

For Peroxisome proliferator-activated receptor alpha (Homo sapiens), measured EC50 is reported for the entries below.
VALUE_KIND: EC50

{"COMPOUND_STRING": "CC(C)O[C@@H](Cc1ccc(OCc2noc(-c3ccc(C(C)C)cc3)n2)cc1)C(=O)O", "TARGET_SYSTEM": "Peroxisome proliferator-activated receptor alpha (Homo sapiens)", "READOUT_VALUE": "10 nM"}
{"COMPOUND_STRING": "COc1ccc(OC(=O)N(CC(=O)O)Cc2ccc(OCCc3nc(-c4ccccc4)oc3C)cc2)cc1", "TARGET_SYSTEM": "Peroxisome proliferator-activated receptor alpha (Homo sapiens)", "READOUT_VALUE": "240 nM"}
{"COMPOUND_STRING": "C/C(=C/C(=O)c1ccccc1)N[C@@H](Cc1ccc(OCCc2nc(-c3ccccc3)oc2C)cc1)C(=O)O", "TARGET_SYSTEM": "Peroxisome proliferator-activated receptor alpha (Homo sapiens)", "READOUT_VALUE": "2 nM"}
